Below is a list of entries, each paired with its recorded glycan array binding signal (z-score) value.
experimental-target: Neu5Gc(a2-3)Gal(b1-3)GlcNAc
assay-notes: glycan array binding signal (z-score within array); higher = stronger binding
stated-conditions: glycan notation: IUPAC condensed, linker removed
Shown is part of a subset that was picked to be rich in the strongest signals.
Give your answer as a number; write no unit.

Completed entries (count: 3):
# binder, experimental-readout, value-observed
measured = [
    ("Gal 9 (Canis lupus) (protein) MAFSSSQPPYLSPGVPFSGKIQGGLQDGLKITINGTILYCNGTRFAVNFHSGHSDSDIAFHFNPRFEEGGYVVCNTKQKGSWGSEERKMQMPFQMGNPFELCFMVNSCDFKVTVNGSHFTQYSHRVPFHYVDTLSITGAVQLSYISFQSPGVWQSSSAPITQTVIHTVQTTPGQPFPNPIIPPTAYPTPTYPMPFFTSIPGGLYPSKSIIVSGTVLPGAKRFHINLRSGNDIAFHLNPRFNENTVVRNMQINNSWGSEERSLPRKMPFVQGQSFSVWIMCEGHCFKVAVDGEHLFEYYHRLKNLLAINNMEVAGDVQLTHVQT", "glycan array binding signal (z-score)", 0.216),
    ("Cohesin-hDCIR (Homo sapiens) (protein) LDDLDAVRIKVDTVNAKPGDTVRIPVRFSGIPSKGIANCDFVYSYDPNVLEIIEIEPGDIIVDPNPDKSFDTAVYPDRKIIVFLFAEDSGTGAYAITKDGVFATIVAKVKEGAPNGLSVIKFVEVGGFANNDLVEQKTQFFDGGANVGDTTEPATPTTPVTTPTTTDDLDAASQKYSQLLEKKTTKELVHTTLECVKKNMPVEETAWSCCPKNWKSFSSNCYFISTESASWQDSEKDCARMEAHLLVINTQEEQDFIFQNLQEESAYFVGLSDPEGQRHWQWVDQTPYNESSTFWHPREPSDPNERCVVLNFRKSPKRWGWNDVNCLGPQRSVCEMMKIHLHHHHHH", "glycan array binding signal (z-score)", -0.174),
    ("MLTim-4 (Mus musculus), Q6U7R4 (protein) MSKGLLLLWLVTELWWLYLTPAASEDTIIGFLGQPVTLPCHYLSWSQSRNSMCWGKGSCPNSKCNAELLRTDGTRIISRKSTKYTLLGKVQFGEVSLTISNTNRGDSGVYCCRIEVPGWFNDVKKNVRLELRRAT", "glycan array binding signal (z-score)", -0.343),
]

// moving on: another record for glycan array binding signal (z-score)
**Q:** # glycan array binding signal (z-score) lookup, item Lb MiSSP8 (Laccaria bicolor) (protein) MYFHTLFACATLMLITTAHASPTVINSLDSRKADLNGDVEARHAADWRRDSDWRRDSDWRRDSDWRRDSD
**A:** -0.571
